Biological target: SARS-COV-2 Spike glycoprotein (SARS-CoV-2, UniProt P0DTC2 14-1208)
Assay: estimated Kd for Spike (avidity), Table 10
Where no end group is shown, it is not given here.
reported endpoint: Kd (nM)
The figure you give is taken to be in nM; do not add the unit.

• LCB1_v1.1-GS-LCB3_v1.2 (1GS3) (designed binder) DKENILQKIYEIMKTLDQLGHAEASMQVSDLIYEFMKQGDERLLEEAERLLEEVERGGGGSGGGGSGGGGSGGGGSGGGGSGGGGSGGGGSGGGGSGGGGSGGGGSGGGGSGGGGSGGGGSGGGGSGGGGSNDDELHMQMTDLVYEALHFAKDEEIQKHVFQLFEKATKAYKNKDRQKLEKVVEELKELLERLLS = 0.1
• LCB3_v1.2-PRO-LCB1_v1.1 (3PRO1) (designed binder) NDDELHMQMTDLVYEALHFAKDEEIQKHVFQLFEKATKAYKNKDRQKLEKVVEELKELLERLLSAGSGGSGGSGGSPVPSTPPTPSPSTPPTPSPSPVPSTPPTPSPSTPPTPSPSPVPSTPPTPSPSTPPTPSPSASGDKENILQKIYEIMKTLDQLGHAEASMQVSDLIYEFMKQGDERLLEEAERLLEEVER = 0.1

Now consider the entry below.
Query (binder): LCB1_v1.5 (LCB1_v1.3 with N-link Glycosylation) (designed binder, also: N-linked glycosylation, site not given here) DKENILQKIYEIMKTLEQLGHAEASMNVSDLIYEFMKQGDERLLEEAERLLEEVER ; field requested: Kd
0.1
